target.system: BRD9 (Homo sapiens)
Sequence (Q9H8M2 1-597): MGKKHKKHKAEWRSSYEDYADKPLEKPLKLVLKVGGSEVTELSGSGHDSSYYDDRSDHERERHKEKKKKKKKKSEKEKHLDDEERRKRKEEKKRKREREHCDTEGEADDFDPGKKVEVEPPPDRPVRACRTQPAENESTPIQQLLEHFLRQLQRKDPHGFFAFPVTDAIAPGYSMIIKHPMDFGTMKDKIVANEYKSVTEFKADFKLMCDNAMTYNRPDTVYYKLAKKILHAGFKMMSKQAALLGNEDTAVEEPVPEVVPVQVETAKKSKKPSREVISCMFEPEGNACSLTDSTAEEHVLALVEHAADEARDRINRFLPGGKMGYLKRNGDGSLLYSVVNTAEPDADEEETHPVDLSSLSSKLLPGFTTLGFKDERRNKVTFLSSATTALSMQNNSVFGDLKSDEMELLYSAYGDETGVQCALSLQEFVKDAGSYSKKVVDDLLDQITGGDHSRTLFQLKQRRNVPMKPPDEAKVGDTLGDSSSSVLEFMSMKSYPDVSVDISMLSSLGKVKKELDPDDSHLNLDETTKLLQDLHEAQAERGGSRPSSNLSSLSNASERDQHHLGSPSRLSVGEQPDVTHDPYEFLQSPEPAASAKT
procedure.details: BRD9 degradation, HiBiT-BRD9 KI HEK293 (LgBiT) cells, NanoGlo Lytic Endpoint assay (Assay Protocol 1)
Type: cell-based
condition.context: Table 2; BRD9 degradation, Assay Protocol 1; 6 h of treatment; read-out: Assay 1 DC50
In this section we review reported DC50 values for a set of compounds.

Study these solved cases before continuing.
> print(dat)
                                   compound  recorded.measurement
1  COc1cc(-c2cc(C)c(=O)n(C)c2)cc(OC)c1CN1CCN(Cc2cccc3c2CCN(C(=O)/C(C#N)=C/C(C)C)C3C)CC1 (mixture of isomers)         1.25 to 10 nM
2  COc1cc(-c2cn(C)c(=O)c(C)c2C)cc(OC)c1CN1CCN(Cc2cccc3c2CCN(C(=O)/C(C#N)=C/c2ccn(C)n2)C3C)CC1 (stereo not drawn)           10 to 25 nM

Qu. Let me know recorded DC50 for COc1cc(-c2cn(C)c(=O)c3cnccc23)cc(OC)c1CN1CCN(Cc2cccc3c2CCN(C(=O)/C(C#N)=C/c2c(F)cccc2F)C3C)CC1 (mixture of isomers) , thanks.
Ans. 1.25 to 10 nM

Qu. Give reported DC50 value for COc1cc(-c2cn(C)c(=O)c(C)c2C)cc(OC)c1CN1CCN(Cc2cccc3c2CCN(C(=O)/C(C#N)=C/c2ccc(C(F)(F)F)cn2)C3C)CC1 (mixture of isomers)
Ans. 1.25 to 10 nM

Qu. Supply measured DC50 of COc1cc(-c2cn(C)c(=O)c3cnccc23)cc(OC)c1CN1CCN(Cc2cccc3c2CCN(C(=O)/C(C#N)=C/C2(C)CC2)C3C)CC1 (mixture of isomers) in your reply.
Ans. 1.25 to 10 nM

---

Dmax by entry:
target.system: UniProt Q9H8M2
procedure.details: Degradation of BRD9 (IF), immunofluorescence in MV4-11 cells, 24 hours (Assay Protocol 2)
Type: cell-based
Design: A suspension of MV4-11 cells (ATCC CRL-9591) was prepared; host or cells: MV4-11
condition.context: MV4-11, Assay protocol 2; BRD9 degradation; read-out: Dmax

Record excerpt, results attached:
compound	Dmax
COc1cc(-c2cn(C)c(=O)c(C)c2C)cc(OC)c1CN1CCN(Cc2cccc3c2CCN(C(=O)/C(C#N)=C/C(C)(C)C)[C@H]3C)[C@@H](C)C1 (single isomer, unassigned)	40 to 70%
COc1cc(-c2cn(C)c(=O)c(C)c2C)cc(OC)c1CN1CCN(Cc2cccc3c2CCN(C(=O)/C(C#N)=C/C(C)(C)F)C3C)C2(CC2)C1 (mixture of isomers)	> 75%
COc1cc(-c2cn(C)c(=O)c3[nH]ncc23)cc(OC)c1CN1CCN(Cc2ccc3c(c2)[C@@H](C)N(C(=O)/C(C#N)=C/C(C)(C)C)CC3)C2(CC2)C1 (single isomer, unassigned)	> 75%

Please turn your attention to the following entry.
Qu. Respond only with Dmax recorded for CC[C@@H]1c2cccc(CN3CCN(Cc4c(OC)cc(-c5cn(C)c(=O)c(C)c5C)cc4OC)C4(CC4)C3)c2CCN1C(=O)/C(C#N)=C/C(C)(C)C (single isomer, unassigned)
Ans. > 75%
